B1: library; a variant is named by its letters at X, in order (parent)
chain: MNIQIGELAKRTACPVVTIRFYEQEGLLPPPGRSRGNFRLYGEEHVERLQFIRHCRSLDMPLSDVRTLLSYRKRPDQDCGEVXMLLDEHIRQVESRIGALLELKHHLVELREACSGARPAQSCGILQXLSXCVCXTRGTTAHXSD

Variants of: B1
Experiment: sfGFP reporter fluorescence (15 h) (µM FITC); higher = stronger transcriptional activation
Settings: library round: Round 2; ligand: 1 µM Pb
Where sfGFP reporter fluorescence equals or exceeds 0.09, the correct label is criterion met; where it does not, the label is criterion not met.

Some solved entries appear below for comparison.
**Query** Dear colleague, could you confirm whether "TGHPY" has sfGFP reporter fluorescence at or above 0.09?
**Result** criterion met

**Query** Dear colleague, could you confirm whether NGDDP M60L P61N D64K K104V L107C has sfGFP reporter fluorescence at or above 0.09?
**Result** criterion met

**Query** Dear colleague, could you confirm whether "TGDRW" has sfGFP reporter fluorescence at or above 0.09?
**Result** criterion not met

**Query** Dear colleague, could you confirm whether NGDPP M84A R111A has sfGFP reporter fluorescence at or above 0.09?
**Result** criterion not met

**Query** Dear colleague, could you confirm whether SGDVP K104V has sfGFP reporter fluorescence at or above 0.09?
**Result** criterion met

---
**Query** Dear colleague, could you confirm whether NGDDW L110I S115G has sfGFP reporter fluorescence at or above 0.09?
**Result** criterion not met

**Query** Dear colleague, could you confirm whether NGDDP M60L D64S L107C has sfGFP reporter fluorescence at or above 0.09?
**Result** criterion met
